# assayedSystem: T1, Monkey Ang-2FD-hFc (monkey (Macca fascicularis))
# T1 construct: Order of the pieces follows the name; also called Dimeric Monkey Ang-2FD
# measurementProtocol: ELISA, 16.67 nM antibody + 2 nM monkey Ang-2FD-hFc, on coated hTie-2-mFc (competitor)
The following binders are shown together with reported Percent Blocking of Ang-2FD Binding to Tie-2 values.
metricName: Percent Blocking of Ang-2FD Binding to Tie-2 (%)

>>> result("H1H706P (antibody, V domains shown, Fully human antibody, human IgG1) VH: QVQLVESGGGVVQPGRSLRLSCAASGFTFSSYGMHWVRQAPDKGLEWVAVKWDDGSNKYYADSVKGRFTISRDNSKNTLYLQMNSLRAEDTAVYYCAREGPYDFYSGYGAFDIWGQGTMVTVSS VL: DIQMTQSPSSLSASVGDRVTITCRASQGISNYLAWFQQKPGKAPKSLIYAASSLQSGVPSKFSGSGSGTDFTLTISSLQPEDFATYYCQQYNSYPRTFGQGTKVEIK")
99.8
>>> result("H1H744N (antibody, V domains shown) VH: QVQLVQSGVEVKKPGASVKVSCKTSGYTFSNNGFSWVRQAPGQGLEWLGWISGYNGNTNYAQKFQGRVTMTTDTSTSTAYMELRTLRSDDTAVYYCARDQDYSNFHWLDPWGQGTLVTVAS VL: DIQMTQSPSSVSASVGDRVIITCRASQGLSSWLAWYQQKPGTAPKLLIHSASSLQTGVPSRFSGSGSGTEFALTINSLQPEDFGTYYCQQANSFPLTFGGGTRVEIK")
96.2
>>> result("H1H690P (antibody, V domains shown, Fully human antibody, human IgG1) VH: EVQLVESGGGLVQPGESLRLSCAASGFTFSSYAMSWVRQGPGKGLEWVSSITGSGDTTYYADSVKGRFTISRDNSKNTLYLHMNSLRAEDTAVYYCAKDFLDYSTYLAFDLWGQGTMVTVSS VL: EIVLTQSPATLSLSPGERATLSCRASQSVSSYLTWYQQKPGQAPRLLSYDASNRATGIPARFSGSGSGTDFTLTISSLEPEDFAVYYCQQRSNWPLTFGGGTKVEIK")
99.6
>>> result("H1H691P (antibody, V domains shown, Fully human antibody, human IgG1) VH: EVQLVESGGGLVQPGRSLRLSCAASGFTFDDYAMHWVRQAPGKGLEWVSGISWNSGDIGYADSVKGRFTISRDNAKNSLYLQMNSLRAQDTALYYCAKAYGDYYYFYGMDVWGQGTTVTVS VL: EIVLTQSPGTLSLSPGERATLSCRASQSVSSSYLAWYQQKPGQAPRLLIFSASSRATGIPDRFSGSGSGTDFTLTISRLEPEDFAVYYCQQYDNSLTFGGGTKVEIK")
99.8
>>> result("H1H724N (antibody, V domains shown) VH: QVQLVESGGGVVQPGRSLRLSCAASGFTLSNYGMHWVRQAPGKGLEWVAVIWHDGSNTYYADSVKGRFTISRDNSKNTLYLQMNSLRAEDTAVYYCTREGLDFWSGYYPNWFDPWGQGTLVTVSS VL: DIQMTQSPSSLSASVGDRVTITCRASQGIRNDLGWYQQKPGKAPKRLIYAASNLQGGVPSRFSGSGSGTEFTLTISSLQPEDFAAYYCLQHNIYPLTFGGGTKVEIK")
96.6
